Every entry's value here was drawn from patent US20220298235A1.

Catalogue of binders with associated MFI
Target: T1, human IL-23 (IL-23-His-Biotin) (human, UniProt Q9NPF7 20-189; P29460 23-328, biotin label, site not stated)
T1 construct: Akesobio lot 20161209; His-tagged and biotinylated
T1 sequence (looked up) 1: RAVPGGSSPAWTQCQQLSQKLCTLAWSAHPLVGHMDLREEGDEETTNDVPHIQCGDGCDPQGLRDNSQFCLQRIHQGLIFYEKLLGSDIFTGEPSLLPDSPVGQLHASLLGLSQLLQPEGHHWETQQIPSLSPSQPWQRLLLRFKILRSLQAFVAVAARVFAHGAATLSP
T1 sequence (looked up) 2: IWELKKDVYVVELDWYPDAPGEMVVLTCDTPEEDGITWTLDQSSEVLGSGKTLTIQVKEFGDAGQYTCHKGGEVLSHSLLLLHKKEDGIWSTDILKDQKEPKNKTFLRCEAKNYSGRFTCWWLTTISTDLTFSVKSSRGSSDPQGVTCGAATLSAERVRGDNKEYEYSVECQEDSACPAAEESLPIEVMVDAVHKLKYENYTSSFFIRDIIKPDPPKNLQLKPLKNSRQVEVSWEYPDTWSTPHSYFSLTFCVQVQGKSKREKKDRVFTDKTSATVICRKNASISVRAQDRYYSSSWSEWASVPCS
Assay: FACS competition, IL-23-His-Biotin 2 µg/mL on 293T-IL-12Rβ1&IL-23R cells; antibody 30 µg/mL
Experimental: 200 μL of 1% PBSA was added into each sample, and the mixture was centrifuged at 700×g for 5 min to discard the supernatant. According to experiment design, correspondingly diluted antibody (highest final concentration of 30 μg/mL, 3-fold dilution, 8 concentrations in total) and human IL-23 (IL-23-His-Biotin, Akesobio, 20161209) (final concentration of 2 μg/mL) were mixed at a ratio of 1:1, and a blank control was set. […]

BINDER: ustekinumab (antibody, V domains shown) VH: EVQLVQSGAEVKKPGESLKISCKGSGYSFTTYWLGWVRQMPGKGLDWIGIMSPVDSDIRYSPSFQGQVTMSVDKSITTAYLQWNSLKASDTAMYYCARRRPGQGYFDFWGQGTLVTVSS VL: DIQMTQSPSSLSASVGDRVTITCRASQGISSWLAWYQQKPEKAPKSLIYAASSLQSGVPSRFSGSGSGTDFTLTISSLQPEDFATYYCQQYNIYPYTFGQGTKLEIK
MFI (MFI): 9.64

BINDER: H5L10 (antibody, human IgG1, kappa, V domains shown, human IgG1 / kappa constant regions; also called humanized antibody H5L10) VH: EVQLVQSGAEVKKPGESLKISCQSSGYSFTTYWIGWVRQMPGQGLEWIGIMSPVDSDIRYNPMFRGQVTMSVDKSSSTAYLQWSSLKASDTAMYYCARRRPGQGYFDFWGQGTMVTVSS VL: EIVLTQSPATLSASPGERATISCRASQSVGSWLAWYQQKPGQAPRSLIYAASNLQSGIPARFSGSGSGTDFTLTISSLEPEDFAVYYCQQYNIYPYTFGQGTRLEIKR
MFI (MFI): 11.9

BINDER: H5L14 (antibody, human IgG1, kappa, V domains shown, human IgG1 / kappa constant regions; also called humanized antibody H5L14) VH: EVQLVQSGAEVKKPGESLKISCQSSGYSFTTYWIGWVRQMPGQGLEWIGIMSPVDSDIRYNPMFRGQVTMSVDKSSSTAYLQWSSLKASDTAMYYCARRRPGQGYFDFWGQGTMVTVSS VL: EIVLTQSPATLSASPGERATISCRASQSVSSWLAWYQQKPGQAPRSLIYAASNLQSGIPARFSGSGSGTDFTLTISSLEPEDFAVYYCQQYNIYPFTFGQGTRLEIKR
MFI (MFI): 14.1
